Test system: OVCAR-3
Assay: COMPARE screening (NCI), GI50 in OVCAR-3
Conditions: human
From the text: This in vitro prescreening system is based on the measurement of anticancer cytotoxicity against human cancer cell line panels consisting of approximately 60 cell lines of major human cancers (including leukemia, and slower growing tumor cells such as lung, colon, breast, skin, kidney, etc.) and is referred hereinafter as “COMPARE” screening. COMPARE screening. […]
VALUE_KIND: GI50

What the record says about COc1cc2c(c(OC)c1OC)-c1ncc3cc(OC)c(OC)c(OC)c3c1C2.Cl [Compound 9ec, Hydrochloride] : GI50 is 21.5 µM

* * *

System: all human cancer cell lines successfully tested (approximately 55)
Assay: COMPARE screening, mean graph midpoint (MGM)
Assay type: cell-based
Conditions: average GI50 over all cell lines tested; values outside 10^-8 to 10^-4 molar taken as the limits; read-out: MGM (mean graph midpoint for growth inhibition)
VALUE_KIND: pIC50
Numbers only, as −log10 of the molar value.

Sample answers from the record:
all human cancer cell lines successfully tested (approximately 55) data for COc1cc2c[n+](CCCNC(C)=O)c3c(c2cc1OC)C(=O)c1cc2c(cc1-3)OCO2 ; its pIC50: 5.10

all human cancer cell lines successfully tested (approximately 55) data for COc1cc2c3c(n(C)c(=O)c2cc1OC)-c1cc2c(cc1C3=O)OCO2 [A, reference compound] ; its pIC50: 4.70

In the following, a different molecule is considered.
all human cancer cell lines successfully tested (approximately 55) data for COc1cc2c[n+](CCCN)c3c(c2cc1OC)C(=O)c1cc2c(cc1-3)OCO2 ; its pIC50: 6.78

* * *

Biological target: topoisomerase I (Homo sapiens, UniProt P11387)
Sequence (P11387 1-765): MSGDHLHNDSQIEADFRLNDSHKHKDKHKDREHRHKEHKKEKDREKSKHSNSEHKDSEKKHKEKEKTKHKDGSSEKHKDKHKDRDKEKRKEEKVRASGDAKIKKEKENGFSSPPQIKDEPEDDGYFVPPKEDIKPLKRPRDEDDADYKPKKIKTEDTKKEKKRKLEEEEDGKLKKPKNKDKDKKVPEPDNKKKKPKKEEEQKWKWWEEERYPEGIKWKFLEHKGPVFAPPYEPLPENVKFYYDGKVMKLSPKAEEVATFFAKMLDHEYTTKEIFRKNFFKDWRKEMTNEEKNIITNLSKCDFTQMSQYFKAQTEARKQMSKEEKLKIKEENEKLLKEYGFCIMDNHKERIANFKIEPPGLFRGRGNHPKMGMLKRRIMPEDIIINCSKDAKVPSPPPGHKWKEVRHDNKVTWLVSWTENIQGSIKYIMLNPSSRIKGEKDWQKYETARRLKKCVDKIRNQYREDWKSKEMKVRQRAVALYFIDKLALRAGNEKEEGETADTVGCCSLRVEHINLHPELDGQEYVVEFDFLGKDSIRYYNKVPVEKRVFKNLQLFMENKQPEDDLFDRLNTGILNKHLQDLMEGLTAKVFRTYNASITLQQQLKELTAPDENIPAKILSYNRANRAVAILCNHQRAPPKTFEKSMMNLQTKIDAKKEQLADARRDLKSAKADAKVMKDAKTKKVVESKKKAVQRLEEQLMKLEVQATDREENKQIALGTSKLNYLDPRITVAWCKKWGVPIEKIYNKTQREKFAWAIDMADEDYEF
Assay: Topoisomerase I-mediated DNA cleavage, 3'-end-labeled 161 bp pBluescript SK(-) fragment
Format: biochemical
Conditions: Table 2; tested at concentrations ranging up to 10 μM; semi-quantitative relative to compound A
VALUE_KIND: Top 1 Cleavage

What the record says about COc1ccc2c(c1OC)-c1ncc3c(OC)ccc(OC)c3c1C2.Cl : Top 1 Cleavage is 0 (0, no activity)

* * *

Test system: DU-145
Assay: COMPARE screening (NCI), GI50 in DU-145
Conditions: Homo sapiens, DU-145, read-out: Cytotoxicity GI50, prostate DU-145, prostate; DU-145; concentration corresponding to 50% growth inhibition
Source text: This in vitro prescreening system is based on the measurement of anticancer cytotoxicity against human cancer cell line panels consisting of approximately 60 cell lines of major human cancers (including leukemia, and slower growing tumor cells such as lung, colon, breast, skin, kidney, etc.) and is referred hereinafter as “COMPARE” screening. COMPARE screening. […]
So I've got a bunch of compounds here, and I need their GI50 values.
Answers are plain numbers, in µM.

What the record says about COc1ccc(OC)c2c3c(ncc12)-c1cc2c(cc1C3)OCO2.Cl [Compound 9db, Hydrochloride] : GI50 is 48.4

What the record says about COc1cc2c(cc1OC)-c1ncc3cc(OC)c(OC)c(OC)c3c1C2.Cl [Compound 9ca, Hydrochloride] : GI50 is 21.7

What the record says about COc1ccc2c(c1OC)-c1ncc3c(OC)ccc(OC)c3c1C2.Cl [Compound 9da, Hydrochloride] : GI50 is 28.1

What the record says about COC1=C(OC)Cc2c3c(ncc2=C1)=c1cc2c(cc1=C3)OCO2.Cl [Compound 9ab, Hydrochloride] : GI50 is 0.0281

What the record says about COc1cc2c(cc1OC)-c1ncc3cc4c(cc3c1C2)OCO4.Cl [Compound 9ba, hydrochloride] : GI50 is 25.3

What the record says about COc1cc2c(c(OC)c1OC)-c1ncc3cc4c(cc3c1C2)OCO4.Cl [Compound 9bc, Hydrochloride] : GI50 is 23.2

What the record says about CC[C@@]1(O)C(=O)OCc2c1cc1n(c2=O)Cc2cc3ccccc3nc2-1 [B, camptothecin, reference compound] : GI50 is 0.01

What the record says about COc1cc2c(c(OC)c1OC)-c1ncc3cc(OC)c(OC)c(OC)c3c1C2.Cl [Compound 9cc, Hydrochloride] : GI50 is 26.6

In the following, a different compound is considered.
What the record says about COc1cc2cnc3c(c2c(OC)c1OC)Cc1ccc2c(c1-3)OCO2.Cl [Compound 9eb, Hydrochloride] : GI50 is 26.9

* * *

Tested on: DU-145
Assay: COMPARE screening (NCI), GI50 in DU-145
VALUE_KIND: GI50 (nM)
One number for each entry, in nM.

What the record says about COc1cc2c[n+](CCCNC(C)=O)c3c(c2cc1OC)C(=O)c1cc2c(cc1-3)OCO2 : GI50 is 907

Cited source: patent US7781445B2
